Assay: qHTS assay to identify small molecule agonists of H2AX (AID 1224845)
Conditions: CHO-K1 phospho-H2AX Ser139 HTRF, 3 h; series mostly up to 154 µM
Inconclusive results are not listed. Active and inactive are the calls of the source. The call rests on the fitted dose curve; in most records, active means well fitted activation curve with a large enough effect in the signal ratio in the repeat runs (not every such curve was filed as active); inconclusive means weak or mixed curves; inactive means flat fitted curve, though single readings scatter; the % refers to the signal ratio.
Outcomes you can answer with include only these: active, inactive

- COMPOUND: "CCc1nn(C)c(C(=O)NCc2ccc(C(C)(C)C)cc2)c1Cl"
  GROUP_LABEL: "inactive"
- COMPOUND: "C[C@@H]1CC[C@@]2(OC1)O[C@H]1[C@@H](O)[C@H]3[C@@H]4CC[C@H]5C[C@@H](O[C@@H]6O[C@H](CO)[C@H](O[C@@H]7O[C@H](CO)[C@@H](O)[C@H](O[C@@H]8OC[C@@H](O)[C@H](O)[C@H]8O)[C@H]7O[C@@H]7O[C@H](CO)[C@@H](O)[C@H](O[C@@H]8O[C@H](CO)[C@@H](O)[C@H](O)[C@H]8O)[C@H]7O)[C@H](O)[C@H]6O)[C@H](O)C[C@]5(C)[C@H]4CC[C@]3(C)[C@H]1[C@@H]2C"
  GROUP_LABEL: "inactive"
- COMPOUND: "FC(Cl)(Cl)Cl"
  GROUP_LABEL: "inactive"
- COMPOUND: "CC(=O)C(Cl)(Cl)Cl"
  GROUP_LABEL: "inactive"
- COMPOUND: "c1ccc2c(c1)[nH]c1cnccc12"
  GROUP_LABEL: "inactive"
- COMPOUND: "CCCN(CC)CC1COC2(CCC(C(C)(C)C)CC2)O1 (centres undefined)"
  GROUP_LABEL: "inactive"
- COMPOUND: "ClCc1ccccc1CCl"
  GROUP_LABEL: "inactive"
- COMPOUND: "CC(=O)[O-].[Tl+]"
  GROUP_LABEL: "inactive"
- COMPOUND: "C[C@]12CC[C@H](O)C[C@H]1CC[C@@H]1[C@@H]2C[C@@H](O)[C@]2(C)[C@@H](C3=CC(=O)OC3)CC[C@]12O"
  GROUP_LABEL: "inactive"
- COMPOUND: "CCOC(=O)CC(=O)CCl"
  GROUP_LABEL: "inactive"

How was NC(=O)CCl classified in this test?
inactive

Try this compound next: Cc1ccc(C(=O)Cl)cc1
inactive

Try this compound next: CCC[CH2][Sn]([CH2]CCC)([CH2]CCC)[O]C(=O)c1ccccc1
active

Try this compound next: CCC(C)(C)C(=O)OC1=C(c2ccc(Cl)cc2Cl)C(=O)OC12CCCCC2
inactive

Try this compound next: CCCCCCCCCCCCCCCC[N+](C)(C)C
inactive

Try this compound next: C[C@@H](Oc1ccc(Cl)cc1Cl)C(=O)O
inactive

Try this compound next: CCOP(=O)(NC(C)C)Oc1ccc(SC)c(C)c1 (centres undefined)
inactive

Try this compound next: C[C@H]1CC[C@@H]2[C@@H](C)[C@H]3[C@H](C[C@H]4[C@@H]5CC=C6CC(O[C@@H]7O[C@H](CO)[C@H](O)[C@H](O[C@@H]8O[C@H](CO)[C@@H](O)[C@H](O)[C@H]8O)[C@H]7O[C@H]7O[C@@H](C)[C@H](O)[C@@H](O)[C@H]7O)CC[C@]6(C)[C@H]5CC[C@]34C)N2C1 (some centres undefined)
inactive

Try this compound next: CCOC(=O)c1ccccc1S(=O)(=O)NC(=O)Nc1nc(Cl)cc(OC)n1
inactive
